test system: SK-MEL-28 melanoma; assay: NCI tumour cell line growth inhibition, 48 h
Measurement Label: GI50

INSERT INTO measurements (compound, tested_on, measurement_label, value_measured) VALUES
  ('O=C(/C=C/C12c3ccccc3C(c3ccccc31)C1C(=O)NC(=O)C12)c1ccc(F)cc1 (stereo not drawn)', 'SK-MEL-28 melanoma', 'GI50', '1.85 µM'),
  ('CO/N=C(\COc1ccc2oc(-c3ccccc3)cc(=O)c2c1)c1ccc(OC)cc1', 'SK-MEL-28 melanoma', 'GI50', '30.7 µM'),
  ('CCOC(=O)C#Cc1c(C(=O)OCC)nnn1Cc1ccc([N+](=O)[O-])cc1', 'SK-MEL-28 melanoma', 'GI50', '3.03 µM'),
  ('CCOC(=O)C1=C(C)N(Cc2ccc(Cl)cc2Cl)C2(O)C=CC(=O)C3=C(O)c4ccccc4C(=O)C312 (stereo not drawn)', 'SK-MEL-28 melanoma', 'GI50', '10.6 µM'),
  ('CCc1ccc(C(=Nc2ccc(N(C)C(=O)CN3CCN(C)CC3)cc2)c2c(O)[nH]c3ccc(C(=O)OC)cc23)cc1', 'SK-MEL-28 melanoma', 'GI50', '1.17 µM');

Quick check: GI50 of `NS(=O)(=O)NCCNc1nonc1C(=Nc1ccc(F)c(Br)c1)NO` ?
48.3 µM

Cool, now `CC1(C)NCCC[C@]2(C)[C@H]3CC[C@@H]4[C@H]5[C@H](C(=O)/C=C/c6ccccn6)CC[C@]5(CO)CC[C@@]4(C)[C@]3(C)CC[C@@H]12`
3.75 µM

Cool, now `CCCCCCCCCNC(=O)/C=C/c1ccc(O)c(O)c1`
19.7 µM

Cool, now `Cc1cn2c(/C=N/N=C(N)N)c(-c3ccccn3)nc2s1`
11.6 µM

Cool, now CC(CN(C)C)Oc1ccccc1NC1=C(Cl)C(=O)C(Nc2ccccc2OC(C)CN(C)C)=C(Cl)C1=O (stereo not drawn)
1.5 µM

Cool, now `O=C1/C(=C/c2ccc(Cl)cc2)CCC/C1=C\c1ccc(Cl)cc1`
5.8 µM

Cool, now `CCOC(=O)c1cc(-c2ccccc2)[nH]c1N/N=C/c1ccc(Cl)cc1`
> 100 µM

Cool, now `O=[N+]([O-])c1cc(C(F)(F)F)ccc1Sc1ccc(C(F)(F)F)cc1[N+](=O)[O-]`
13.2 µM

====

system: OVCAR-8 ovarian; experiment: NCI tumour cell line growth inhibition, 48 h
# Lookup of reported GI50 keyed by entry

Some entries whose results are on file:
INSERT INTO assay_data (compound, tested_on, value_measured) VALUES
  ('OCCNc1nc(Nc2ccc(Cl)c(Cl)c2)nc2ccccc12', 'OVCAR-8 ovarian', '4.79 µM'),
  ('O=C1c2ccccc2-c2c1c1c(O)cccc1n2Cc1ccccn1', 'OVCAR-8 ovarian', '74 µM'),
  ('Cc1ccc(NC(=O)CSc2nnc3n(Cc4ccccc4)c(=O)c4c(C)c(C(N)=O)sc4n23)cc1', 'OVCAR-8 ovarian', '> 100 µM'),
  ('N#Cc1c(N)nc(N2CCOCC2)c(C#N)c1-c1ccccn1', 'OVCAR-8 ovarian', '> 100 µM'),
  ('C/C(O)=C(\C#N)C(=O)Nc1ccc(C(F)(F)F)cc1', 'OVCAR-8 ovarian', '13.5 µM'),
  ('CC1(C)NCCC[C@]2(C)[C@H]3CC[C@@H]4[C@H]5[C@H](C(=O)/C=C/c6ccccn6)CC[C@]5(CO)CC[C@@]4(C)[C@]3(C)CC[C@@H]12', 'OVCAR-8 ovarian', '2.02 µM'),
  ('COc1cc(-c2csc(NC(=O)Nc3ccc(C(F)(F)F)cc3)n2)cc(OC)c1OC', 'OVCAR-8 ovarian', '2.97 µM'),
  ('CCOC(=O)C1=C(C)N(Cc2ccc(Cl)cc2Cl)C2(O)C=CC(=O)C3=C(O)c4ccccc4C(=O)C312 (centres undefined)', 'OVCAR-8 ovarian', '7.17 µM');

Quick check: GI50 of `O=C(NO)[C@@H](Cc1ccccc1)NS(=O)(=O)c1ccc(-c2ccccc2)cc1` ?
22.5 µM

====

tested on: UACC-257 melanoma; experiment: NCI tumour cell line growth inhibition, 48 h
Measurement Label: GI50

INSERT INTO assay_data (compound, measurement_label, value_measured) VALUES
  ('OCCNc1nc(Nc2ccc(Cl)c(Cl)c2)nc2ccccc12', 'GI50', '11100 nM');

Quick check: GI50 of `CCC(=O)Nc1ccc(C)c(-c2ccc(C(=O)NCC3CC3)cc2)c1` ?
> 25000 nM

Cool, now `O=[N+]([O-])c1cc(C(F)(F)F)ccc1Sc1ccc(C(F)(F)F)cc1[N+](=O)[O-]`
6650 nM

Cool, now `Clc1ccccc1CNc1c2ccccc2nc2ccccc12`
2990 nM

Cool, now `Cc1cc(-c2ccccn2)cc(C)c1/C=C/c1cncc(-c2nn[nH]n2)c1`
> 25000 nM

Cool, now `Oc1ccc(C2c3ccccc3Oc3ccccc32)c2cccnc12`
2760 nM

Cool, now `O=C(O)c1c(=O)cccc2ssc12`
2020 nM

Cool, now `CCOC(=O)C#Cc1c(C(=O)OCC)nnn1Cc1ccc([N+](=O)[O-])cc1`
2710 nM

Cool, now `NS(=O)(=O)c1ccc(N(/C=C/C(=O)C(F)(F)F)Cc2ccc(Cl)cc2)cc1`
24100 nM

Cool, now Cc1ccc(C(=O)/C(=C\c2ccc([N+](=O)[O-])cc2)S(=O)Cc2ccc(Cl)cc2)cc1 (stereo not given)
1890 nM

====

tested on: BT-549 breast; assay: NCI tumour cell line growth inhibition, 48 h
Measurement Label: TGI

INSERT INTO results (compound, measurement_label, value_measured) VALUES
  ('CN1CCN(c2ccc(NC(=O)c3cncnc3Nc3ccc(OCc4ccccn4)c(Cl)c3)cc2)CC1', 'TGI', '11.1 µM'),
  ('O=C1NNC2NC(=O)C3(NN2C1=O)c1ccccc1-c1ccccc13 (configuration not stated)', 'TGI', '> 100 µM'),
  ('COc1cc(/C=C\c2nnc(/C=C\c3ccc(O)c(OC)c3)s2)ccc1O', 'TGI', '11.1 µM'),
  ('O=C(N/N=C/c1ccc([N+](=O)[O-])cc1)Nc1ccc(Br)cc1', 'TGI', '> 100 µM'),
  ('CCN(CC)C(=S)SCN1C(=O)c2ccccc2S1(=O)=O', 'TGI', '> 100 µM'),
  ('C/C(O)=C(\C#N)C(=O)Nc1ccc(C(F)(F)F)cc1', 'TGI', '> 100 µM'),
  ('O=C1OC(C2(O)OC(=O)c3ccccc32)c2ccccc21 (configuration not stated)', 'TGI', '> 100 µM'),
  ('Oc1c(Cl)cc(Cl)cc1C(c1cc(Cl)cc(Cl)c1O)C(Cl)(Cl)Cl', 'TGI', '6.93 µM');

Quick check: TGI of COc1cc2c(cc1OC)C(=O)C1(C2)[C@H](c2ccccc2)C2C(=O)c3cc(OC)c(OC)cc3C2[C@H]1c1ccccc1 (some centres not stated) ?
> 100 µM

Cool, now O=c1[nH]c(=O)n(C2CC(O)C(CO)O2)c2nc3ccc4cc5ccccc5cc4c3nc12 (configuration not stated)
> 100 µM

Cool, now CSC(=S)OC1CC(n2cnc3c(NC(=O)c4ccccc4)ncnc32)OC1CO[Si](C)(C)C(C)(C)C (configuration not stated)
> 100 µM

====

test system: EKVX NSCLC; experiment: NCI tumour cell line growth inhibition, 48 h
# Lookup of reported TGI keyed by entry

Some entries whose results are on file:
INSERT INTO measurements (compound, measurement_label, value_measured) VALUES
  ('CCOC(=O)c1cnc2sc3ccc4ccccc4c3n2c1=O', 'TGI', '> 100 µM'),
  ('COc1cc2c(cc1OC)C(=O)C1(C2)[C@H](c2ccccc2)C2C(=O)c3cc(OC)c(OC)cc3C2[C@H]1c1ccccc1 (stereo partly specified)', 'TGI', '> 100 µM'),
  ('O=NNc1ccc(Sc2ccc(NN=O)cn2)nc1', 'TGI', '> 100 µM'),
  ('CC1(C)N=C(N)N=C(N)N1c1cccc(C(=O)Nc2ccc(S(=O)(=O)F)cc2)c1', 'TGI', '> 100 µM');

Quick check: TGI of `Cc1ccc(NS(=O)(=O)c2cccc(C#N)c2)c2[nH]cc(C#N)c12` ?
80.9 µM

Cool, now `CCS(=O)(=O)CCn1c(=O)c2c(ncn2C)n(C)c1=O`
> 100 µM

====

tested on: HOP-92 NSCLC; assay: NCI tumour cell line growth inhibition, 48 h
Measurement Label: TGI

INSERT INTO measurements (compound, tested_on, value_measured) VALUES
  ('CCOC(=O)c1cnc2c(ccc3ncccc32)c1NCCCN(CC)CC', 'HOP-92 NSCLC', '> 100 µM'),
  ('CC(=O)O[C@@]1(C)[C@@H](C)C(=O)O[C@@H]2CCN3CC=C(COC(=O)[C@]1(C)O)[C@H]23', 'HOP-92 NSCLC', '> 100 µM'),
  ('CCCCCCCCCC(=O)OCC1OC(n2cc(F)c(=O)[nH]c2=O)C(NC(=O)OCc2ccccc2)C(OC(=O)CCCCCCCCC)C1O (stereo not given)', 'HOP-92 NSCLC', '36.3 µM'),
  ('C/C(O)=C(\C#N)C(=O)Nc1ccc(C(F)(F)F)cc1', 'HOP-92 NSCLC', '> 100 µM'),
  ('O=C(O/N=C1/CCC/C1=C\c1ccccc1)c1ccc(Cl)c(Cl)c1', 'HOP-92 NSCLC', '> 100 µM');

Quick check: TGI of CN1C(=O)C(O)CC1c1ccccc1C(F)(F)F (stereo not given) ?
> 100 µM

Cool, now `O=C1c2ccccc2-c2c1c1c(O)cccc1n2Cc1ccccn1`
> 100 µM

Cool, now `Cc1cc(-c2ccccn2)cc(C)c1/C=C/c1cncc(-c2nn[nH]n2)c1`
> 25 µM

Cool, now `CCN(CC)c1ccc(/C=C/C(=O)c2cc(C(C)(C)C)c(O)c(C(C)(C)C)c2)cc1`
> 100 µM

Cool, now O=C(NC(Cc1cnc[nH]1)C(=O)N1CCCC1)C1CCCC1 (stereo not given)
> 100 µM
